These data points were gathered from PubChem BioAssay AID934.

# Experimental Details: Parental Cell Counter Screen for Stat Signaling Pathway Assay
# Condition Details: ME-180 (cervical carcinoma) parental cells, blue fluorescence artefact counter-screen; series mostly up to 38.3 µM
Records with an inconclusive call do not appear. Activity calls are given as the source filed them. Calls come from the whole dose curve; as a rule, active = well fitted activation curve with a large enough effect; inconclusive = small, poorly fitted or top-dose-only effect; inactive = flat fitted curve, though single readings scatter.
Outcome codes: true (active), false (inactive)

1. COc1ccc2c(c1)c1c(C)c3cnccc3c(C)c1n2CCCN    true
2. Cn1c(N2CCN(c3ccccn3)CC2)nc2c1c(=O)n(Cc1ccc(Cl)cc1)c(=O)n2C    false
3. O=C1Nc2ccc(I)cc2/C1=C/c1cc(Br)c(O)c(Br)c1    false
4. CCN(CC)CCNc1ccc(CO)c2sc3ccccc3c(=O)c12    false
5. CC1CCN(CC[S-])CC1.O.O.[Cl][Pt]    false
6. CC[C@@H]1CN2CCc3cc(OC)c(OC)cc3[C@H]2C[C@@H]1C[C@H]1NCCc2cc(OC)c(OC)cc21    false
7. CC[C@@H]1CN2CCc3cc(OC)c(OC)cc3[C@H]2C[C@@H]1C[C@@H]1NCCc2cc(OC)c(OC)cc21    false
8. CC(C)(C)c1nnc2sc(SCC(=O)c3ccccc3)nn2c1=O    false
9. COc1cc(-c2nn3c(COc4ccccc4)nnc3s2)cc(OC)c1OC    false
10. NS(=O)(=O)c1ccc(N=Nc2cc3ccccc3c(C(=O)O)c2O)cc1    false
11. CCCCSc1nc(N)c(C#N)c(-c2cccs2)c1C#N    false
12. N=C(N)SCc1cccc2c(=O)cc(-c3ccccc3)oc12    false
13. CCCCCCc1cc2cc(-c3nnc(-c4ccccc4O)o3)c(=O)oc2cc1O    true
14. NCCSc1nc2ccccc2s1    false
15. Cn1c(NCc2ccccc2)nc2c1c(=O)n(Cc1ccc(Br)cc1)c(=O)n2C    false
16. CC1(C)Cc2c(C#N)c(NCCc3ccccc3)nc(-c3ccco3)c2CO1    true
17. Cc1oc2cc(O)cc(C)c2c(=O)c1-c1cnn(-c2ccccc2)c1    false
18. CCOC(=O)N1CCC(=C2c3ccc(Cl)cc3CCc3cccnc32)CC1    false
19. COc1ccc(C(=O)CCN(C)C)c2ccccc12    false
20. C=CCNC(=O)C(C#N)c1nc2ccccc2nc1N1CCCCCC1 (configuration not stated)    true
21. COc1ccc2[nH]c3c(N4CCN(Cc5ccc6c(c5)OCO6)CC4)ncnc3c2c1    false
22. Cc1ccc(S(=O)(=O)N2CCN(c3nc(C(C)C)c4c(c3C#N)CC(C)(C)OC4)CC2)cc1    false
23. O=C1CC(N(O)C2CC(=O)N(Cc3ccccc3)C2=O)C(=O)N1Cc1ccccc1 (configuration not stated)    false
24. ClC(=Nc1cccc2ccccc12)N(c1ccccc1)c1ccccc1    false
25. Nc1ncnc2c1ncn2[C@@H]1O[C@@H](CO)[C@H](O)[C@@H]1O    false
26. Cc1cc(=O)oc2c(CN3CCCCC3)c(O)c(Cl)cc12    true
27. C=C1C(=O)O[C@@H]2[C@H]3O[C@]3(C)CCC=C(C)CC[C@@H]12    false
28. CCc1cc2c(=O)c(-c3nc4ccccc4[nH]3)coc2cc1OC(=O)N1CCOCC1    true
29. O=C(Oc1oc(-c2ccco2)nc1C=Nc1ccccc1)c1ccoc1    false
30. ClC(Br)=C(n1cnc2ccccc21)n1cnc2ccccc21    false
31. CCNC(=O)c1cc2c(=O)n3cccc(C)c3nc2n(CCc2ccccc2)c1=N    true
32. CC(C)N1CC=C2C(C#N)=C(N)C(C#N)(C#N)C(c3ccccc3)C2C1 (configuration not stated)    true
33. Cc1ccc(CNC(=O)c2cc3c(=O)n4ccccc4nc3n(CC3CCCO3)c2=N)cc1 (configuration not stated)    true
34. CCCCc1nc(NCCNC(=O)c2ccco2)c(C#N)c2c1CSC(C)(C)C2    false
35. Fc1ccc2[nH]c3c(N4CCN(Cc5ccc6c(c5)OCO6)CC4)ncnc3c2c1    false
36. OC[C@@H]1O[C@@H](n2cnc3c(SCc4ccccc4)ncnc32)[C@@H](O)[C@H]1O    false
37. COc1cc2nc(-c3ccccc3)nc(N3CCCC3)c2cc1OC    false
38. COc1cccc2c1C(=O)c1c(O)c3c(c(O)c1C2=O)C[C@](O)(C(=O)CO)C[C@H]3O[C@@H]1C[C@H](N)[C@H](O)[C@H](C)O1    false
39. CN(C)CCCn1c2c3ccccc3ccc2c2oc(=O)c3ccccc3c21    true
40. O=c1c(O)c(-c2ccc(O)c(O)c2)oc2cc(O)cc(O)c12    false
41. Clc1ccc(-c2nnc3sc(Cc4cccs4)nn23)cc1    false
42. C[n+]1cc2c3c(ccc2c2ccc4cc5c(cc4c21)OCO5)OCO3    true
